Origin of values: paper PMC11784839

- Assay target: tau (Homo sapiens, UniProt P10636)
- Sequence (P10636 623-695 limits assumed): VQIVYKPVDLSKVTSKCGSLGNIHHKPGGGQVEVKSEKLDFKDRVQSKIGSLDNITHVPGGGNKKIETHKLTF
- Protocol details: MCE Phenols Library screening, tau biosensor cell seeding assay (AvZ)
- Format: cell-based
- Assay setup: Z score, replicate 2
Please enter criterion met where Z Repl 2 is greater than or equal to -0.5, and criterion not met where it is lower.

| Compound | Category |
| --- | --- |
| NCCCN(CCCCNCCCNC(=O)CCc1ccc(O)c(O)c1)C(=O)CCc1ccc(O)c(O)c1 [Kukoamine B] | criterion not met |
| O=C(/C=C/c1ccccc1)c1ccc(O)cc1 [4'-Hydroxychalcone] | criterion met |
| CC(=O)c1ccc(O)c(C)c1 [4'-Hydroxy-3'-methylacetophenone] | criterion met |
| O=c1c(O)c(-c2ccc(O)cc2O)oc2cc(O)cc(O)c12 [Morin] | criterion not met |
| O=C(O)[C@H](O)Cc1ccc(O)c(O)c1 [Danshensu] | criterion not met |
| C=C(C)[C@H](CC=C(C)C)Cc1c(O)cc(OC)c2c1O[C@H](c1ccc(O)cc1OC)CC2=O [(2S)-2'-Methoxykurarinone] | criterion met |
| CC(C)c1ccc2c(c1O)CC[C@H]1C3=C(CC[C@]21C)C(=O)OC3 [Triptophenolide] | criterion met |
| CCCCCCC/C=C/C(=O)CCc1ccc(O)c(OC)c1 [[8]-Shogaol] | criterion not met |

###

- Assay target: tau (Homo sapiens, UniProt P10636)
- Protocol details: MCE Phenols Library screening, tau biosensor cell seeding assay (AvZ)
- Type: cell-based
- Assay setup: puncta, replicate 2
Assay endpoint: raw data 2

| Compound | Recorded value |
| --- | --- |
| O=C(/C=C/c1ccc(O)cc1)C1=C(O)C(O)([C@@H]2O[C@H](CO)[C@@H](O)[C@H](O)[C@H]2O)C(O)=C([C@@H]2O[C@H](CO)[C@@H](O)[C@H](O)[C@H]2O)C1=O (some centres unmarked) [Hydroxysafflor yellow A] | 8192.15 |
| O=C1c2c(O)cccc2C([C@@H]2O[C@H](CO)[C@@H](O)[C@H](O)[C@H]2O)c2cc(CO)cc(O)c21 (some centres unmarked) | 15284.2 |
| C[C@@H]1O[C@@H](OC[C@H]2O[C@@H](Oc3c(-c4ccc(O)cc4)oc4cc(O)cc(O)c4c3=O)[C@H](O[C@@H]3O[C@@H](C)[C@H](O)[C@@H](O)[C@H]3O)[C@@H](O)[C@H]2O)[C@H](O)[C@H](O)[C@H]1O | 23785 |
| OC[C@H]1O[C@@H](Oc2cc3c(O)cc(O)cc3[o+]c2-c2ccc(O)c(O)c2)[C@H](O)[C@@H](O)[C@@H]1O.[Cl-] [Kuromanin (chloride)] | 3284.04 |
| C[C@H]1CCCC(=O)CCC/C=C/c2cc(O)cc(O)c2C(=O)O1 | 17279.6 |
| CCOC(=O)c1cc(O)c(O)c(O)c1 [Ethyl gallate] | 484.087 |
| NCc1ccc(O)cc1 [4-Hydroxybenzylamine] | 7945.11 |
| N#CCc1ccc(O)cc1 [4-Hydroxybenzyl cyanide] | 6872.51 |

###

Here the recorded av Z is given for each entry.
- Assay target: tau (Homo sapiens, UniProt P10636)
- Protocol details: MCE Phenols Library screening, tau biosensor cell seeding assay (AvZ)
- Assay type: cell-based
- Assay setup: average Z score of the two replicates, MCE Phenols Library screen
Assay endpoint: av Z

| Molecule | Recorded value |
| --- | --- |
| O=c1cc(-c2ccc(O)cc2)oc2cc(O)c(O)c(O)c12 | -0.88 |
| O=c1c(O)c(-c2ccc(O)c(O)c2)oc2cc(O)ccc12 | -1.075 |
| COc1cc(CCO[C@@H]2O[C@H](CO[C@@H]3O[C@H](CO)[C@@H](O)[C@H](O)[C@H]3O)[C@@H](OC(=O)/C=C/c3ccc(O)c(O)c3)[C@H](O[C@@H]3O[C@@H](C)[C@H](O)[C@@H](O)[C@H]3O)[C@H]2O)ccc1O [Cistanoside A] | -0.435 |
| COc1cc2ccc(=O)oc2c(O[C@@H]2O[C@H](CO)[C@@H](O)[C@H](O)[C@H]2O)c1O | -0.243 |
| O=c1c(O)c(-c2ccc(O)cc2O)oc2cc(O)cc(O)c12 | -1.394 |
| OC[C@H]1O[C@@H](Oc2cc3c(O)cc(O)cc3[o+]c2-c2cc(O)c(O)c(O)c2)[C@H](O)[C@@H](O)[C@@H]1O.[Cl-] [Delphinidin 3-glucoside (chloride)] | -1.2 |
| COc1cc2ccc(=O)oc2c(O)c1O | -0.522 |
| Oc1cc2c(cc1O)[C@@H]1c3ccc(O)c(O)c3OC[C@]1(O)C2 | -1.283 |
| O=c1oc2c(O)c(O)cc3c(=O)oc4c(O)c(O)cc1c4c23 | -0.555 |
| O=C1CC(C(=O)O)c2c1oc(=O)c1cc(O)c(O)c(O)c21 (centres unmarked) | -1.007 |
| COc1cc(-c2oc3cc(O)cc(O)c3c(=O)c2O)ccc1O | -0.262 |
| Oc1cc(O)cc(-c2cc3ccc(O)cc3o2)c1 | -0.343 |
| Oc1cc(O)c2c(c1)O[C@H](c1cc(O)c(O)c(O)c1)[C@H](O)C2 [(-)-Epigallocatechin] | -0.236 |
| CC(=O)O[C@@H](CC=C(C)C)C1=CC(=O)c2c(O)ccc(O)c2C1=O | -0.525 |
| O=C1C[C@@H](c2ccc(O)c(O)c2)Oc2c1ccc(O[C@@H]1O[C@H](CO)[C@@H](O)[C@H](O)[C@H]1O)c2O | -0.697 |
| COc1ccc(-c2oc3c(CC=C(C)C)c(O)cc(O)c3c(=O)c2O[C@@H]2O[C@@H](C)[C@H](O)[C@@H](O)[C@H]2O[C@@H]2O[C@H](CO)[C@@H](O)[C@H](O)[C@H]2O)cc1 [Sagittatoside A] | -0.438 |
| COc1cc2cc(Oc3ccc4ccc(=O)oc4c3)c(=O)oc2cc1O | -0.207 |
| CC(C)=CC[C@@H](OC(=O)CC(C)(C)O)C1=CC(=O)c2c(O)ccc(O)c2C1=O [?-Hydroxyisovalerylshikonin] | -0.705 |
| O=C(/C=C/c1ccc(O)c2oc(-c3ccc(O)c(O)c3)cc12)O[C@H](Cc1ccc(O)c(O)c1)C(=O)O | -1.412 |
| OC[C@H]1O[C@@H](Oc2cc(O)cc(/C=C/c3ccc(O[C@@H]4O[C@H](CO)[C@@H](O)[C@H](O)[C@H]4O)cc3O)c2)[C@H](O)[C@@H](O)[C@@H]1O [Mulberroside A] | -0.262 |
| O=C(O)[C@H]1O[C@@H](Oc2cc(O)c3c(=O)cc(-c4ccc(O)c(O)c4)oc3c2)[C@H](O)[C@@H](O)[C@@H]1O [Luteolin 7-O-glucuronide] | -0.307 |
| O=c1c(O)c(-c2ccc(O[C@@H]3O[C@H](CO)[C@@H](O)[C@H](O)[C@H]3O)c(O)c2)oc2cc(O)cc(O)c12 [Spiraeoside] | -0.566 |
| COc1cc(O)c2c(c1)O[C@H](c1cc(O)cc(O)c1)CC2=O | -0.753 |
| O=C1C=CC(=O)c2c(O)ccc(O)c21 | -0.494 |
| O=c1oc2cc(O)ccc2c2oc3cc(O)ccc3c12 | -0.28 |
| O=C(O)[C@H]1O[C@@H](Oc2cc3oc(-c4ccc(O)cc4)cc(=O)c3c(O)c2O)[C@H](O)[C@@H](O)[C@@H]1O | -1.415 |
| C[C@@H]1O[C@@H](Oc2cc(O)c3c(=O)c(O)c(-c4ccc(O)c(O)c4)oc3c2)[C@H](O)[C@H](O)[C@H]1O [Vincetoxicoside B] | -0.686 |
| O=C1c2ccccc2C(=O)c2c(O)c(O)cc(O)c21 | -0.446 |
| C[C@@H]1O[C@@H](OC[C@H]2O[C@@H](OCCc3ccc(O)c(O)c3)[C@H](O)[C@@H](OC(=O)/C=C/c3ccc(O)c(O)c3)[C@@H]2O)[C@H](O)[C@H](O)[C@H]1O [Forsythoside I] | -0.884 |

###

Here the recorded av puncta is given for each entry.
- Assay target: tau (Homo sapiens, UniProt P10636)
- Protocol details: MCE Phenols Library screening, tau biosensor cell seeding assay (AvZ)
- Type: cell-based
- Assay setup: average puncta of the two replicates

| Compound | av puncta |
| --- | --- |
| COc1cc(CNC(=O)CCCCCC(C)C)ccc1O [Nordihydrocapsaicin] | 15905.5 |
| COc1ccccc1O | 12102.3 |
| COc1cc(C(=O)O[C@H]2[C@@H]3C=CO[C@@H](O[C@@H]4O[C@H](CO)[C@@H](O)[C@H](O)[C@H]4O)[C@@H]3[C@@]3(CO)O[C@@H]23)ccc1O [Picroside II] | 13671.5 |
| OC[C@]1(O)COc2cc(O)ccc2-c2cc(O)c(O)cc2C1 | 15106.6 |
| O=c1c(-c2ccc(O)cc2)coc2c([C@@H]3O[C@H](CO[C@@H]4OC[C@@H](O)[C@H](O)[C@H]4O)[C@@H](O)[C@H](O)[C@H]3O)c(O)ccc12 [Puerarin 6''-O-Xyloside] | 14673.6 |
| COc1cc(/C=C/C(=O)[O-])ccc1O.[Na+] [Ferulic acid (sodium)] | 11696.2 |
| CC1OC(OCC2OC(Oc3c(-c4ccc(O)cc4)oc4cc(OC5OC(C)C(O)C(O)C5O)cc(O)c4c3=O)C(O)C(O)C2O)C(O)C(O)C1O (stereo not drawn) | 15180.1 |
| C[C@@H]1O[C@@H](O[C@@H]2[C@@H](O)[C@H](OCCc3ccc(O)c(O)c3)O[C@H](CO)[C@H]2OC(=O)/C=C/c2ccc(O)c(O)c2)[C@H](O)[C@H](O)[C@H]1O [Verbascoside] | 12378.6 |
| O=c1c(O)c(-c2ccc(O)cc2)oc2cc(O)cc(O)c12 | 14707.1 |
| O=c1c(-c2ccc(O)cc2)coc2cc(O)ccc12 | 16957.6 |
| COc1cc(-c2oc3cc(OC)c(OC)c(O)c3c(=O)c2OC)ccc1O | 15282.9 |
| COc1cc2c(cc1OC)[C@@H](Cc1ccc(O)c(Oc3cc4c(cc3OC)CCN(C)[C@@H]4Cc3ccc(O)cc3)c1)N(C)CC2 | 16619 |
| O=C(/C=C/c1ccc(O)c(O)c1)O[C@@H](C(=O)O)[C@@H](O)C(=O)O | 14397.2 |
| COc1cc2c(cc1O)C[C@H]1c3cc(O)c(OC)cc3CC[N@@+]1(C)C2.[Cl-] [Phellodendrine (chloride)] | 17505.3 |
| COc1ccc(CCC(=O)c2c(O)cc(O[C@@H]3O[C@H](CO)[C@@H](O)[C@H](O)[C@H]3O[C@@H]3O[C@@H](C)[C@H](O)[C@@H](O)[C@H]3O)cc2O)cc1O [Neohesperidin dihydrochalcone] | 17327.7 |
